Origin of values: paper PMC6458995

- Test Target: MSK1 (Homo sapiens, UniProt O75582)
- Construct: lines 1-140) and Reaction Biology
- Sequence (O75582 whole entry): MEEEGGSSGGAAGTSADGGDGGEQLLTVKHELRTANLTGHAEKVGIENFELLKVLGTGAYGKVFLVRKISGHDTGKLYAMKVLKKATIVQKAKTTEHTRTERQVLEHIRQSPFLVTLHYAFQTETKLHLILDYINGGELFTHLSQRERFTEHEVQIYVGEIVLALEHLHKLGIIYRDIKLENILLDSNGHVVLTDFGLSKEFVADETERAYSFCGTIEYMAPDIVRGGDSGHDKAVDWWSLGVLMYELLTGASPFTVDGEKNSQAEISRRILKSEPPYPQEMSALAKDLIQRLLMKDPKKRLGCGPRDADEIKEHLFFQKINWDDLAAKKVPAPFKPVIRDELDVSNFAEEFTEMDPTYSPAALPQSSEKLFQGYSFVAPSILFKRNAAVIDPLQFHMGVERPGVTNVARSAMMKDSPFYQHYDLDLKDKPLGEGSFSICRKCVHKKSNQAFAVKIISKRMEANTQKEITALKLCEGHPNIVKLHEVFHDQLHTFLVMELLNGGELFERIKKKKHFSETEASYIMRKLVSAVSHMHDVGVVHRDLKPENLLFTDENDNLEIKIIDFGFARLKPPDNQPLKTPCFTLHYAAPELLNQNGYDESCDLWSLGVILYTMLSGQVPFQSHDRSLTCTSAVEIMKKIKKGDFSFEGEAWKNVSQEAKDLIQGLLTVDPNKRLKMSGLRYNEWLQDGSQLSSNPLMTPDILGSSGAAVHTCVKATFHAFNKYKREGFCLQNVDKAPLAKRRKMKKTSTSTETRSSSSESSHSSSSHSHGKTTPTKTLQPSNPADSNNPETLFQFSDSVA
- Assay Notes: Dundee kinase panel
- Assay type: biochemical
- Setup Conditions: read-out: residual activity
- Experimental: Compounds were screened at 1 μM. For key hits, pIC50 values were then determined by HTRF as above. […] Stability in mouse and human liver microsomes was determined by Cyprotex.
Result Type: remaining activity at 1 µM (%)
Write the answer as a number in %, unit excluded.

Worked examples follow.
                               smiles_entry                 result_type  unit_spec  reported
0  O=C1Nc2ccc(I)cc2/C1=C/c1cc(Br)c(O)c(Br)c1  remaining activity at 1 µM          %        74
1    O=C1Cc2c([nH]c3ccc(Br)cc23)-c2ccccc2N1  remaining activity at 1 µM          %        90
2  COCCOc1ccc(-c2cn(-c3ccccc3)c3nc[nH]c(=O)c23)cc1  remaining activity at 1 µM          %       121

Next:
Looking up Oc1ncnc2c1c(-c1ccccc1)cn2-c1ccccc1 , I found its remaining activity at 1 µM recorded as 102

* * *

- Test Target: PIM1 (Homo sapiens)
- Construct: lines 1-140) and Reaction Biology
- Sequence (P11309 whole entry): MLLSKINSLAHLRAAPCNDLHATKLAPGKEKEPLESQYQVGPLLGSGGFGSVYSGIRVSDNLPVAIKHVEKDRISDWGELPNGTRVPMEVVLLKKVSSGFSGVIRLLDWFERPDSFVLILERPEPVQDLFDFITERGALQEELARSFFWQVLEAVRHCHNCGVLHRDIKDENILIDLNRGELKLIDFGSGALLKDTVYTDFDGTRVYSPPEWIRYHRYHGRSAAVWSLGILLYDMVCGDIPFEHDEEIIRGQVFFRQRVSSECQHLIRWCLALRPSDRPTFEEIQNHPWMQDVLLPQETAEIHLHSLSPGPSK
- Assay Notes: Dundee kinase panel
- Type: biochemical
- Setup Conditions: read-out: residual activity
Result Type: remaining activity at 1 µM (%)
Kindly answer with a numeric value in %, unit omitted.

                               smiles_entry  reported
0  COCCOc1ccc(-c2cn(-c3ccccc3)c3nc[nH]c(=O)c23)cc1        98

Sample O=C1Nc2ccc(I)cc2/C1=C/c1cc(Br)c(O)c(Br)c1 ; remaining activity at 1 µM observed: 76

Kindly note the recorded remaining activity at 1 µM for O=C1Cc2c([nH]c3ccc(Br)cc23)-c2ccccc2N1 , which is 90

Value of measured remaining activity at 1 µM for the entry Oc1ncnc2c1c(-c1ccccc1)cn2-c1ccccc1 : 122

* * *

- Test Target: JNK2 (Homo sapiens, UniProt P45984)
- Construct: lines 1-140) and Reaction Biology
- Sequence (P45984 whole entry): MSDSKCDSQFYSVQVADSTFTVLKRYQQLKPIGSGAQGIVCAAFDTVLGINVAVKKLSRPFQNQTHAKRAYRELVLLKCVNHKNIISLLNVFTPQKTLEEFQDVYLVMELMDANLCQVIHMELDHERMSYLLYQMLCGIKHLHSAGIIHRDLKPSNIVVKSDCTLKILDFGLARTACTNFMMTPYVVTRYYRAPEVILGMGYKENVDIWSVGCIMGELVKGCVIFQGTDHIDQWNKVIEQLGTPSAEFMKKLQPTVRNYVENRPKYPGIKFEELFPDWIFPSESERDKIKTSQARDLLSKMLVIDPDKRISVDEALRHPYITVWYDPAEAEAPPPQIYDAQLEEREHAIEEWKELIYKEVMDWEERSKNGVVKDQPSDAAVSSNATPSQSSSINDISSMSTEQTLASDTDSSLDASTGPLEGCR
- Assay Notes: Dundee kinase panel
- Type: biochemical
- Setup Conditions: read-out: residual activity
remaining activity at 1 µM: recorded values
Form entry: enter the amount, then its unit.

Note to self: remaining activity at 1 µM recorded for COCCOc1ccc(-c2cn(-c3ccccc3)c3nc[nH]c(=O)c23)cc1 [DMX-5804] was 103%

get_value(item= Oc1ncnc2c1c(-c1ccccc1)cn2-c1ccccc1 [F1386-0303] , readout=remaining activity at 1 µM) returns 94%

For O=C1Nc2ccc(I)cc2/C1=C/c1cc(Br)c(O)c(Br)c1 [GW5074] the compound record lists remaining activity at 1 µM as 80%

Measured remaining activity at 1 µM, O=C1Cc2c([nH]c3ccc(Br)cc23)-c2ccccc2N1 [Kenpaullone] : 94%

* * *

- Test Target: FLT3 (Homo sapiens)
- Sequence (P36888 27-993): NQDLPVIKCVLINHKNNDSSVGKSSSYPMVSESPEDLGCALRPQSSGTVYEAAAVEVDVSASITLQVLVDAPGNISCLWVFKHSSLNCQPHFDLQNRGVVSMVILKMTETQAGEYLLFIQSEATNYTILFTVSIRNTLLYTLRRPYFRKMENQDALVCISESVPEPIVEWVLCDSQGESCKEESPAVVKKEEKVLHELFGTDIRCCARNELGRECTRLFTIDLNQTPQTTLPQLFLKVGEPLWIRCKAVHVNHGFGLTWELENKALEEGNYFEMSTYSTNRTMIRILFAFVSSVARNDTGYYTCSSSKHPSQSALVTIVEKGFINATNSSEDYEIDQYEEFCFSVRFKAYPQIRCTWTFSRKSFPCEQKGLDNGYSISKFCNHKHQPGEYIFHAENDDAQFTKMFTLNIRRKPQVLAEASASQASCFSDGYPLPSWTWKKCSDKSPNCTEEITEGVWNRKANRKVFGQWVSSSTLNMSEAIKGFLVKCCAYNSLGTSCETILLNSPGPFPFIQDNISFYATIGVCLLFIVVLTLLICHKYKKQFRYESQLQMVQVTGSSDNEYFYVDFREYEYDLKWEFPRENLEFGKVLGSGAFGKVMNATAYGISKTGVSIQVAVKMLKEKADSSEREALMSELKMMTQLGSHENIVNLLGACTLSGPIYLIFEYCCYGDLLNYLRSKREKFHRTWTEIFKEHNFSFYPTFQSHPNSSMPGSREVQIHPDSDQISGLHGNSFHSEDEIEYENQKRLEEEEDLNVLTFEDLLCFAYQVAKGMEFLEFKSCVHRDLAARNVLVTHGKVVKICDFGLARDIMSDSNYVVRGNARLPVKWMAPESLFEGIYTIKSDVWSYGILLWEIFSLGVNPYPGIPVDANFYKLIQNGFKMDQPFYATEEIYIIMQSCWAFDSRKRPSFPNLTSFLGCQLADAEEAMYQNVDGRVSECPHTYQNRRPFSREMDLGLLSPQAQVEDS
Result Type: IC50 (µM)
Number only, in µM; omit the unit.

FLT3 (Homo sapiens) IC50 of Oc1ncnc2c1c(-c1ccccc1)cn2-c1ccccc1 [F1386-0303] is 2.19
